Each entry below carries its recorded hERG current change (%, negative = inhibition) at 10uM.
- assay.system: human ether-à-go-go-related gene (hERG) potassium channel (human);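 also: peak tail current of the secondary pulse compared with the same well before compound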
- assay: primary screen, population patch clamp on CHO cells stably expressing hERG; higher = less effect of the substance
Out of some 310,000 compounds screened, about 14,000 (4.5%) showed an effect of 50% or more. Effects have a minus sign here. The sample as a whole holds a higher share of strong results than the screen did.
readout.kind: hERG current change (%, negative = inhibition) at 10uM

{"columns": ["smiles.str", "assay.system", "measured.value"],
 "data": [
  ["Cc1oc(C2CC2)cc1C(=O)O", "human ether-à-go-go-related gene (hERG) potassium channel (human)", "-9.52%"],
  ["COc1ccc(S(=O)(=O)N2CCCCC2)cc1NC(=O)CCCOc1ccccc1", "human ether-à-go-go-related gene (hERG) potassium channel (human)", "-9.13%"],
  ["CC(=O)NCCC(=O)Nc1cc(S(=O)(=O)N2CCCCC2)ccc1Oc1ccccc1", "human ether-à-go-go-related gene (hERG) potassium channel (human)", "-64.9%"],
  ["COc1cccc(/C=N/NC(=O)c2[nH]c(C)c(C(=O)N/N=C/c3cccc(OC)c3O)c2C)c1O", "human ether-à-go-go-related gene (hERG) potassium channel (human)", "11.7%"],
  ["COc1ccc(S(=O)(=O)N2CCCCC2)cc1NC(=O)CCNC(=O)c1ccccc1Cl", "human ether-à-go-go-related gene (hERG) potassium channel (human)", "-11%"]
]}

* * *

# key: entry, value: hERG current change (%, negative = inhibition) at 10uM
- assay.system: human ether-à-go-go-related gene (hERG) potassium channel (human, UniProt Q12809);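 also: peak tail current of the secondary pulse compared with the same well before compound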
- Sequence (Q12809 whole entry, looked up): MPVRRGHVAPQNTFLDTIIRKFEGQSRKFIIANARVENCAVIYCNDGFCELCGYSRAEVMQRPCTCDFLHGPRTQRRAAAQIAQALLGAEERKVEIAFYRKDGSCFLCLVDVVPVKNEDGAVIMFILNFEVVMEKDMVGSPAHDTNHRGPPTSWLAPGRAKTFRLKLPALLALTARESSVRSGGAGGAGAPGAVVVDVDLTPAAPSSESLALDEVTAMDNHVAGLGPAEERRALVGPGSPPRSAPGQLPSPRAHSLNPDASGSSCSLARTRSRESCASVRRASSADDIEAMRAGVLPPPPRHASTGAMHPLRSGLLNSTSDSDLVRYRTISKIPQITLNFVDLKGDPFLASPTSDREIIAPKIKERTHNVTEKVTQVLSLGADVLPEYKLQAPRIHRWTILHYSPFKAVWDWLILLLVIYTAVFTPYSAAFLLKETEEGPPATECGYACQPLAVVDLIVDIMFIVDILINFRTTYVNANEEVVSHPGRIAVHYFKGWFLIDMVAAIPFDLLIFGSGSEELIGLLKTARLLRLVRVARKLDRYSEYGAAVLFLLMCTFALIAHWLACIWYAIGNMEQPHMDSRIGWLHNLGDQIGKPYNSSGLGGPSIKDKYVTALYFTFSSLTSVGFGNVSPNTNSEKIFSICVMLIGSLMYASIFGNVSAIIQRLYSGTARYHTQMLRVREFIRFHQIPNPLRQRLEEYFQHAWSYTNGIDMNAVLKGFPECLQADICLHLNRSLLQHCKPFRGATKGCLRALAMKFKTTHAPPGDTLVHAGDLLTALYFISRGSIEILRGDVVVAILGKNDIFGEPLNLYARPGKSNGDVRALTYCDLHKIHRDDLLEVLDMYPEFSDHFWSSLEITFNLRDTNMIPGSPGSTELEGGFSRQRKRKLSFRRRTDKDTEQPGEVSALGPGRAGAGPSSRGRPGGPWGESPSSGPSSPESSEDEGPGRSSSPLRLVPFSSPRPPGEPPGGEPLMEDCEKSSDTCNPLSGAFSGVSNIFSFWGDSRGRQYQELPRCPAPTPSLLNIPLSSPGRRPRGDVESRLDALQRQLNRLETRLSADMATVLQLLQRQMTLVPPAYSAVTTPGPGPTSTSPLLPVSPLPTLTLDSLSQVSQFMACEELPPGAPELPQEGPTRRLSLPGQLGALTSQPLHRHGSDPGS
- assay: primary screen, population patch clamp on CHO cells stably expressing hERG; higher = less effect of the substance
In all, about 310,000 compounds went through this assay and about 14,000 (4.5%) showed an effect of 50% or more. The effect is printed as a negative number. Only a selection was taken, and strong results are over-represented in it overall.
readout.kind: hERG current change (%, negative = inhibition) at 10uM

{"columns": ["compound", "measured.value"],
 "data": [
  ["CCOc1ccc(CCNC(=O)C2CCN(S(=O)(=O)N3CC(C)CC(C)C3)CC2)cc1OCC (stereo not drawn)", "20.7%"],
  ["Cn1c(-c2ccc(F)cc2)cnc1NCc1ccccc1F.O=C(O)C(=O)O", "-27.3%"],
  ["O=C(CN1CCN(S(=O)(=O)c2ccc(Br)cc2)CC1)N/N=C/c1ccncc1", "-70.6%"],
  ["O=C(CN1CCN(S(=O)(=O)c2ccc(Br)cc2)CC1)N/N=C/c1ccc(Cl)c([N+](=O)[O-])c1", "-17.9%"],
  ["COc1ccc(CN2CCC(C(=O)N3CCCC(C)C3)CC2)cc1OC.O=C(O)C(=O)O (stereo not drawn)", "-19.2%"],
  ["CC(CCc1ccccc1)NC(=O)COC(=O)CC1CC2CCC1C2 (stereo not drawn)", "-6.07%"],
  ["Cc1ccnc(NC(=O)c2oc3ccccc3c2C)c1", "24.7%"],
  ["COc1ccccc1CNc1ncccn1.O=C(O)C(=O)O", "23.6%"],
  ["COc1ccc(CNc2ncc(-c3ccc(F)cc3)n2C)cc1OC.O=C(O)C(=O)O", "-65.2%"]
]}

* * *

- assay.system: human ether-à-go-go-related gene (hERG) potassium channel (human, UniProt Q12809);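 also: peak tail current of the secondary pulse compared with the same well before compound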
- assay: primary screen, population patch clamp on CHO cells stably expressing hERG; higher = less effect of the substance
The whole screen tested about 310,000 compounds, of which about 14,000 (4.5%) showed an effect of 50% or more. The effect is printed as a negative number. The sample holds strong results, similar compounds and a random draw of the others, so the mix is not that of the screen.
readout.kind: hERG current change (%, negative = inhibition) at 10uM

{"columns": ["molecule", "assay.system", "measured.value"],
 "data": [
  ["CCN(CC)C(=O)c1cccc(-c2ccc(OC)cc2)c1", "human ether-à-go-go-related gene (hERG) potassium channel (human, UniProt Q12809)", "-17%"],
  ["CCNS(=O)(=O)c1ccc(NC(=S)N2CCc3ccccc32)cc1", "human ether-à-go-go-related gene (hERG) potassium channel (human, UniProt Q12809)", "22.9%"],
  ["C=CCN1C[C@@H](C)N(C(c2ccc(C(=O)N(CC)CC)cc2)c2cccc(OC)c2)C[C@@H]1C (some centres unmarked)", "human ether-à-go-go-related gene (hERG) potassium channel (human, UniProt Q12809)", "-65.3%"],
  ["Cc1nonc1C(=O)N/N=C/c1ccc(O)c(O)c1", "human ether-à-go-go-related gene (hERG) potassium channel (human, UniProt Q12809)", "-29.7%"],
  ["CCSC(C)CC1C/C(=N/O)c2c(CC)noc2C1 (centres unmarked)", "human ether-à-go-go-related gene (hERG) potassium channel (human, UniProt Q12809)", "-24.2%"]
]}

* * *

- assay.system: human ether-à-go-go-related gene (hERG) potassium channel (human);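 also: peak tail current of the secondary pulse compared with the same well before compound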
- assay: primary screen, population patch clamp on CHO cells stably expressing hERG; higher = less effect of the substance
Out of some 310,000 compounds screened, about 14,000 (4.5%) showed an effect of 50% or more. The effect is printed as a negative number. Shown is part of a subset that was picked to be rich in strong results.
Known hERG current change (%, negative = inhibition) at 10uM of a selection of compounds
readout.kind: hERG current change (%, negative = inhibition) at 10uM (%)

{"columns": ["smiles.str", "assay.system", "measured.value"],
 "data": [
  ["Fc1cccc(NC(=S)NCCCN2CCOCC2)c1", "human ether-à-go-go-related gene (hERG) potassium channel (human)", -0.1],
  ["CCCCNC(=O)CN1CCN(Cc2ccc3cc(OC)ccc3c2)CC1.O=C(O)C(=O)O", "human ether-à-go-go-related gene (hERG) potassium channel (human)", -69],
  ["CCc1ccc(N2CCN(CCNC(=O)Nc3ccc(OC)cc3)CC2)cc1", "human ether-à-go-go-related gene (hERG) potassium channel (human)", -29.9],
  ["N#CCN1CCN(CC(=O)Nc2ccc(OCc3ccccc3)cc2)CC1", "human ether-à-go-go-related gene (hERG) potassium channel (human)", -4.27],
  ["COc1ccccc1OCC(=O)NCCSCc1ccc(Cl)cc1", "human ether-à-go-go-related gene (hERG) potassium channel (human)", -45],
  ["CSc1cccc(NC(=S)NCCCN2CCN(c3ccc(F)cc3)CC2)c1", "human ether-à-go-go-related gene (hERG) potassium channel (human)", -66.7],
  ["COc1ccc(NC(=O)NCCN2CCN(c3cccc(Cl)c3)CC2)cc1", "human ether-à-go-go-related gene (hERG) potassium channel (human)", -31.6],
  ["CCN(CC)c1ccc(NC(=O)CN2CCN(CC(=O)Nc3ccc(OC)cc3)CC2)cc1", "human ether-à-go-go-related gene (hERG) potassium channel (human)", -74.9],
  ["CCOc1ccc(NC(=O)CCN2CCN(c3ccccc3OC)CC2)cc1", "human ether-à-go-go-related gene (hERG) potassium channel (human)", -33.8],
  ["COc1ccccc1N1CCN(CCCNc2c(C)c(=O)n(C)c(=O)n2C)CC1", "human ether-à-go-go-related gene (hERG) potassium channel (human)", -5.42]
]}
